Tested on: biotinyl-Met-oxazolone
Experiment: self-aminoacylation, catalytic enhancement (BMO) (fold over background); higher = more active; k-Seq, kA / k0A0; sequences stand for … in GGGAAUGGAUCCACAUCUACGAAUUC…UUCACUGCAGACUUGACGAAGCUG
This sample holds only a part of the variants without activity.
Provide the reported self-aminoacylation of each item.

Problem: Give its self-aminoacylation value. Item: CUACUCCAAACAAGCGGUCUG [Fam1A.1 aminoacylation ribozyme variant]
Solution: 1.13

Problem: Give its self-aminoacylation value. Item: AAGUAUGCUAAUAGUAGCAAG [Fam3.1 aminoacylation ribozyme variant]
Solution: 1.22

Problem: Give its self-aminoacylation value. Item: AUUACCCUGGCCAUGGAGUGA [Fam2.1 aminoacylation ribozyme variant]
Solution: 4.45

Problem: Give its self-aminoacylation value. Item: AAGUUUGCUAAGAUUCGCAAG [Fam3.1 aminoacylation ribozyme variant]
Solution: 0.647

Problem: Give its self-aminoacylation value. Item: AAGUUUGCUAAUAGUCGCCGG [Fam3.1 aminoacylation ribozyme variant]
Solution: 5.01

Problem: Give its self-aminoacylation value. Item: UAGUUUGCUAAUAGUCGCAAA [Fam3.1 aminoacylation ribozyme variant]
Solution: 1.75

Problem: Give its self-aminoacylation value. Item: CCAAACUUCAAGAAAUCGGUC [Fam1B.1 aminoacylation ribozyme variant]
Solution: 0.927

Problem: Give its self-aminoacylation value. Item: CUAUUUCAAACAAUUGGUCUG [Fam1A.1 aminoacylation ribozyme variant]
Solution: 0.994

Problem: Give its self-aminoacylation value. Item: AUUACCCUUGCCAUCGAGUGA [Fam2.1 aminoacylation ribozyme variant]
Solution: 6.18

Every entry's value here was drawn from the supplement of paper PMC9233669.
